- TARGET_OF_ASSAY: Full-length human MNK2 (Homo sapiens, UniProt Q9HBH9, T379D)
- Construct: GST (N); purchased Carna Biosciences 02-146; host or cells: baculovirus expression system
- Sequence (Q9HBH9 whole entry T379D): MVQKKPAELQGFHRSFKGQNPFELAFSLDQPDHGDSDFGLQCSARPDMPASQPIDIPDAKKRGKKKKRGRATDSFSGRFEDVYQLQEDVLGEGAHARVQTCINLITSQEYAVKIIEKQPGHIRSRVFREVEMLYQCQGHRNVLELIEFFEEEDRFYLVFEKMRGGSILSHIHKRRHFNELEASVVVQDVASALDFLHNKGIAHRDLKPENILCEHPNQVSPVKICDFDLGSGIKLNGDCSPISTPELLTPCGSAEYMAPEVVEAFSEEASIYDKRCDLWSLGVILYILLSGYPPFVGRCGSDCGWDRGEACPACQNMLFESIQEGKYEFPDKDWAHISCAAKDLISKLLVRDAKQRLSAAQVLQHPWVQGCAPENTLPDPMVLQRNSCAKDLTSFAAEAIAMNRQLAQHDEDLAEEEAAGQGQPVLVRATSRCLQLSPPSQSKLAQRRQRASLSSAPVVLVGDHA
- METHOD: MNK2 biochemical IC50 assay (Caliper Mobility Shift Assay)
- PROTOCOL_CONDITIONS: read-out: P(IC50) MNK2 (converted)
- From the text: The phosphorylated peptide product and unphosphorylated peptide substrate were detected using a Caliper Mobility Shift Assay using the Caliper LabChip EZ Reader II. The Caliper Mobility Shift Assay technology is based on the utilisation of a microfluidic chip to measure the conversion of a fluorescent non-phosphorylated peptide substrate to phosphorylated product by electrophoresis separation of substrate and product and detection via Laser-induced fluorescence. […]
RECORDED_METRIC: IC50 (nM)
Provide the reading as a plain figure in nM.

Please review the entries below; each comes with its answer.
COMPOUND	IC50, nM
CC(C)Oc1cc(F)ccc1Nc1ncnc2sc(C(=O)NCCN(C)C)nc12	126
CC(C)Oc1ccc2c(c1)CCN2c1ncnc2sc(C(=O)NC3CCOCC3)nc12	631
CC(C)Oc1cc(F)ccc1Nc1ncnc2sc(C(=O)NCCCN(C)C)nc12	50.1
O=C(NC1CCOCC1)c1nc2c(N3CCc4cccc(F)c43)ncnc2s1	126
CC(C)Oc1cc(F)ccc1Nc1ncnc2sc(C(=O)NC3CCNCC3)nc12	50.1
CC1Cc2ccccc2N1c1ncnc2sc(C(=O)NCCCN(C)C)nc12 (centres unmarked)	20

Task: Given the entry CNCCCNC(=O)c1nc2c(N3c4ccccc4C[C@@H]3C)ncnc2s1 , report its measured IC50.
Result: 31.6

Task: Now consider CN1CCN(C(=O)c2nc3c(N4CCc5ccccc54)ncnc3s2)CC1 and answer again.
Result: 251

Task: Now consider CNCCCNC(=O)c1nc2c(N3CCc4ccccc43)ncnc2s1 and answer again.
Result: 7.94

Task: Now consider O=C(NC1CCOCC1)c1nc2c(-n3ccc4ccccc43)ncnc2s1 and answer again.
Result: 31.6

Task: Now consider CC(C)Oc1cc(F)ccc1Nc1ncnc2sc(C(=O)N3CC4(CNC4)C3)nc12 and answer again.
Result: 251

Task: Now consider CN(C)C(=O)c1nc2c(N3CCc4cc(F)ccc43)ncnc2s1 and answer again.
Result: 20

Task: Now consider CN1CCN(CCC2CN(c3ncnc4sc(C(=O)NC5CCOCC5)nc34)c3ccccc32)CC1 (centres unmarked) and answer again.
Result: 79.4
